system_under_test: F876L mutant Androgen Receptor (AR-F876L) (Homo sapiens (Human), UniProt P10275, F877L)
Sequence (P10275 whole entry F877L): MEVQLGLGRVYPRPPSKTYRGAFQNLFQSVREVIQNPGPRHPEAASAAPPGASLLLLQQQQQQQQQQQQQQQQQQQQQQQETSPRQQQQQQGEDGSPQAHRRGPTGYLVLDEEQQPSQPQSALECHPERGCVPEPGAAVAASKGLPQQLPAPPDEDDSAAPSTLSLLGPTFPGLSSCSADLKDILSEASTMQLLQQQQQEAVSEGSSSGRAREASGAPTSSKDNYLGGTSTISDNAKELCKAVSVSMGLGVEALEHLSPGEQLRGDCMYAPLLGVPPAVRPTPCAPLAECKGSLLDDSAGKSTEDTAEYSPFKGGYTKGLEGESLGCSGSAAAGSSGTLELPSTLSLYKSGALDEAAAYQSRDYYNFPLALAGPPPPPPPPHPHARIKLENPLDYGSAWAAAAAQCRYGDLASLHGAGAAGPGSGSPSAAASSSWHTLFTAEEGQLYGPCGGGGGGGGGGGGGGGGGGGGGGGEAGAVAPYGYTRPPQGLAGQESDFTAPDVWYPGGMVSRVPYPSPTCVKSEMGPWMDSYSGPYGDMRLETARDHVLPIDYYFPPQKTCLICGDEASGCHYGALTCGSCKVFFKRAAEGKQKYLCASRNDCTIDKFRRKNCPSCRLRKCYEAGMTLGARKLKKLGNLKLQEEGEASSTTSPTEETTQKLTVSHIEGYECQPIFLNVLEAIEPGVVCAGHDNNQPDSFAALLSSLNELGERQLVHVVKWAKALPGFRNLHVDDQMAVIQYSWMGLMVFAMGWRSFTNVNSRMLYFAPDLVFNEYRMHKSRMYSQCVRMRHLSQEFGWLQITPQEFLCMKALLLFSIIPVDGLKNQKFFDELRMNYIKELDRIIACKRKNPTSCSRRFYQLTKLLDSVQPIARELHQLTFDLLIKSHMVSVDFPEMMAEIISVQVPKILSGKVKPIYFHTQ
test_protocol: LNCaP-AR-F876L AG reporter assay (agonist mode)
Format: cell-based
measurement_conditions: maximum % stimulation (agonist response) over the tested concentration range; read-out: LNCaP-AR-F876L AG MAX % Stim
parameter_measured: Emax (%)
Give your result in % as a bare value.

# annotated cases, reported Emax shown
CCNC(=O)n1cc(-c2ccc(N3C(=S)N(c4cnc(C#N)c(C)c4)C(=O)C34CCC4)cc2)cn1; 0.9
CN1CC(Oc2ccc(N3C(=S)N(c4cnc(C#N)c(C(F)(F)F)c4)C(=O)C34CCC4)cc2)C1; 0.1

Form field Emax, entry CN1C2C=C(c3ccc(N4C(=S)N(c5cnc(C#N)c(C(F)(F)F)c5)C(=O)C45CCC5)cc3)CC1CC2 (stereo not drawn) : 0.4

Form field Emax, entry `COc1cc(N2C(=O)C3(CCC3)N(c3ccc(OC4CCN(C)CC4)nc3)C2=S)cnc1C#N` : 0.2

Form field Emax, entry `N#Cc1ncc(N2C(=O)C3(CCC3)N(c3ccc(CN4CCNCC4)cc3)C2=S)cc1C(F)(F)F` : 0.2
